- Tested on: SK-MEL-28 melanoma
- experimental_details: NCI tumour cell line growth inhibition, 48 h

molecule	target_or_test_system	TGI
C/C(=N\NS(=O)(=O)c1ccccc1)c1ccc(Cl)c(Cl)c1	SK-MEL-28 melanoma	> 100 µM
CCOC(=O)N(Cc1cccs1)c1cc(OC)c(OC)c(OC)c1	SK-MEL-28 melanoma	> 100 µM
O=C(/C=C/c1csc(-c2ccccc2)n1)NCc1ccc(C(=O)NCCc2ccccc2)cc1	SK-MEL-28 melanoma	> 100 µM
CN(C)CCCNC(=O)CCNC(=O)c1cc(NC(=O)c2cc(NC(=O)c3cc(NC(=O)c4nc(NC(=O)CCCNC(=O)c5cc(NC(=O)c6cc(NC(=O)c7cc(NC(=O)c8nccn8C)cn7C)cn6C)cn5C)cn4C)cn3C)cn2C)cn1C	SK-MEL-28 melanoma	> 100 µM
COCCN(C(C)=O)C1CCC2(SCCS2)c2[nH]c3ccccc3c21 (centres undefined)	SK-MEL-28 melanoma	> 100 µM
Nn1c(NNC(=O)C(=O)Nc2cc(Cl)c(Cl)cc2Cl)n[nH]c1=S	SK-MEL-28 melanoma	> 100 µM
CCOC(=O)COc1ccccc1/C=C1\CCC(CN(C)C)C1=O (centres undefined)	SK-MEL-28 melanoma	7.21 µM
Nc1ncnc2ccc(Sc3ccc4ncnc(N)c4c3)cc12	SK-MEL-28 melanoma	> 100 µM
CCc1nccc2c1nc(-c1nonc1N)n2CC	SK-MEL-28 melanoma	> 25 µM

* * *

- System: SNB-75 CNS
- experimental_details: NCI tumour cell line growth inhibition, 48 h
readout_label: TGI (µM)

> print(dat)
                                    compound  censoring.sign  value
 1  COc1ccc2nc(-c3cccs3)cc(C(O)CN3CCSCC3)c2c1 (stereo not given)               =   78.7
 2  COc1cccc(-c2c(C#N)c(N)nc3c2CCS(=O)(=O)c2ccc(C)cc2-3)c1               >    100
 3  COc1cc(C2C(C(=O)O)=C(CO)Oc3cc4c(cc32)OCO4)cc(OC)c1O (stereo not given)               >    100
 4  Cn1cc(-c2ccc3occ(-c4cccc(-c5ccncc5)c4)c3n2)cn1               =   13.4
 5  COc1ccc2nc(-c3ccc(-c4noc(-c5cc(OC)c(OC)c(OC)c5)n4)cc3)[nH]c2c1               =   27.4
 6  C=CCC[CH2][Sn]([c]1ccccc1)([c]1ccccc1)[c]1ccccc1               =   6.88
 7  O=C1c2cccnc2C(=O)c2nc3cc(N4CCN(C5CC5)CC4)ccc3nc21               =   1.37
 8                   C#CCOCn1cnc2c(Cl)ncnc21               >    100
 9            N#C/C(=C\c1ccc(O)c(O)c1)C(N)=S               >    100
10  O=C(/C=C(\O)c1ccccc1)C(=O)NNc1ccc([N+](=O)[O-])cc1[N+](=O)[O-]               =   30.9

* * *

- Tested on: SN12C renal
- experimental_details: NCI tumour cell line growth inhibition, 48 h; in the data active means GI50 below about 0.43 µM; inactive means the rest
Outcomes: yes (1) for active, no (0) for inactive

> print(dat)
                                    compound  target.or.test.system    group
 1  COc1ccc(-c2c3c(N)nc(-c4ccncc4)nc3nc3c2c(C)nn3-c2ccccc2)cc1            SN12C renal   no (0)
 2            O=c1cc(-c2ccccc2)[nH]c2ccccc12            SN12C renal   no (0)
 3  CC1(C)CC(=O)c2c(C(F)(F)F)nn(-c3ccc(C(N)=O)c(NC4CCC(OC(=O)CN)CC4)c3)c2C1 (configuration not stated)            SN12C renal  yes (1)
 4  COc1ccc(-c2nn3c(-c4cc(F)c(Cl)cc4Cl)nnc3s2)cc1            SN12C renal   no (0)
 5  O=C1/C(=C\c2c[nH]c3ccccc23)c2ccccc2N1c1c(Cl)cccc1Cl            SN12C renal   no (0)
 6  COc1ccc(-c2nc3sc4c(c3c(=O)[nH]2)CCCCCC4)cc1            SN12C renal   no (0)
 7  COc1cc(/C=C/c2cc(O)c3cc(C(C)=O)c(=O)oc3c2)cc2c1O[C@]1(C)CC[C@@H](O)C(C)(C)[C@H]1C2            SN12C renal   no (0)
 8  Cn1cc(-c2ccc3occ(-c4cccc(-c5ccncc5)c4)c3n2)cn1            SN12C renal   no (0)
 9  COc1ccc2nc(-c3ccc(-c4noc(-c5cc(OC)c(OC)c(OC)c5)n4)cc3)[nH]c2c1            SN12C renal   no (0)
10  COc1ccc(-c2csc(N(C(=O)N3CCN(c4cc5c(cc4F)c(=O)c(C(=O)O)cn5C4CC4)CC3)c3ccccc3)n2)cc1            SN12C renal   no (0)
11  O=C(O)/C=C\C(=O)N1C/C(=C\c2ccccc2Cl)C(=O)/C(=C/c2ccccc2Cl)C1            SN12C renal   no (0)
12  COC(C(=O)[O][Ge]([CH3])([CH3])[CH3])c1ccccc1 (configuration not stated)            SN12C renal   no (0)
13  C=CCOc1cccc(/C=C2\SC(=Nc3ccc(O)cc3)NC2=O)c1            SN12C renal   no (0)
14               NCCn1c(=O)[nH]c(=O)[nH]c1=S            SN12C renal   no (0)
15         Cn1cccc1-c1cc(-c2cccs2)nc(N)c1C#N            SN12C renal   no (0)
16  C=CCC[CH2][Sn]([c]1ccccc1)([c]1ccccc1)[c]1ccccc1            SN12C renal   no (0)
17  Cc1ccccc1[P+](Cc1ccccc1)(c1ccccc1)c1ccccc1            SN12C renal   no (0)
